# testSystem: ALK2 (aa 147-end) (Homo sapiens (Human), UniProt Q04771)
# Sequence (Q04771 147-509): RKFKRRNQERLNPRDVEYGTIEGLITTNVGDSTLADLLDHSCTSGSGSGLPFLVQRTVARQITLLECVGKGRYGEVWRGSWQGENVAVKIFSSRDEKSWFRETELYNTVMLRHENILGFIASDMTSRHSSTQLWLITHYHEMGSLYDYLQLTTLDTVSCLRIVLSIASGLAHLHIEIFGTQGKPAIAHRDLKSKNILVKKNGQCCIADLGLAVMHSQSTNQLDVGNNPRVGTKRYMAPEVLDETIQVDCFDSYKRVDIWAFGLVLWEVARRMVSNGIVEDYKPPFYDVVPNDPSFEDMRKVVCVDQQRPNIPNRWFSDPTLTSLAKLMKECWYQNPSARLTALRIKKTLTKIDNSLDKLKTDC
# protocolSummary: ALK2 HTRF Assay
# Format: biochemical
# reportedConditions: 3 μM ATP, 0.5 nM ALK2, 2 hr, 25° C.; read-out: ALK2 IC50
Items are presented alongside their recorded IC50.

Below are worked cases with known answers.
Cc1nn2c(-c3ccnc4cc(-c5ccncc5)ccc34)cnc2cc1-c1ccc(C(=O)N2CCN(C)CC2)cc1 [Example 14]: 1 to 5 nM
Cc1nn2c(-c3ccnc4cc(Nc5cccnc5)ccc34)cnc2cc1-c1ccc(N2CCNCC2)cc1 [Example 22]: < 1 nM
Cc1cnn(-c2ccc3c(-c4cnc5cc(-c6ccc(CN(C)C)cc6)c(C)nn45)ccnc3n2)n1 [Example 65]: 1 to 5 nM
Cc1nn2c(-c3ccnc4nc(-c5ccccn5)ccc34)cnc2cc1-c1cnn([C@H]2CC[C@H](O)CC2)c1 [Example 37]: < 1 nM

Request the reported IC50 associated with N#Cc1nn2c(-c3ccnc4ccccc34)cnc2cc1-c1ccc(N2CCNCC2)cc1 [Example 6]
< 1 nM

And then Cc1nn2c(-c3ccnc4c3CCN4C(=O)c3ccncc3)cnc2cc1-c1cnn(C2CCOCC2)c1 [Example 32] , what is it?
5 to 100 nM

And then CCn1cnc(-c2ccc3c(-c4cnc5cc(-c6ccc(CN(C)C)cc6)c(C)nn45)ccnc3n2)c1 [Example 54] , what is it?
< 1 nM

* * *

# testSystem: ALK2 (aa 147-end) (Homo sapiens (Human), UniProt Q04771)
# protocolSummary: ALK2 HTRF Assay
# Format: biochemical
# reportedConditions: 3 μM ATP, 0.5 nM ALK2, 2 hr, 25° C.; read-out: ALK2 IC50
Items are presented alongside their recorded IC50.

Cc1nn2c(-c3ccnc4cc(-c5ccncc5)ccc34)cnc2cc1-c1ccc(CN2CCC[C@H]2C)c(F)c1: 1 to 5 nM

Request the reported IC50 associated with CCn1cc(-c2cc3ncc(-c4ccnc5nc(-c6ccccn6)ccc45)n3nc2C)cn1
1 to 5 nM

And then Cc1nn2c(-c3ccnc4cc(-c5ccncc5)ccc34)cnc2cc1-c1cnn([C@H]2CC[C@H](O)CC2)c1 , what is it?
1 to 5 nM

* * *

# testSystem: ALK2 (aa 147-end) (Homo sapiens (Human))
# protocolSummary: ALK2 HTRF Assay
# Assay type: biochemical
# reportedConditions: 3 μM ATP, 0.5 nM ALK2, 2 hr, 25° C.; read-out: ALK2 IC50
experimentalEndpoint: IC50

Request the reported IC50 associated with Cc1cnn(-c2ccc3c(-c4cnc5cc(-c6ccc(CN7CCC(O)CC7)cc6)c(C)nn45)ccnc3n2)n1 [Example 67]
< 1 nM

And then OCc1nn2c(-c3ccnc4ccccc34)cnc2cc1-c1ccc(N2CCNCC2)cc1 [Example 7] , what is it?
< 1 nM

And then Cc1nn2c(-c3ccnc4nc(-c5ccn(C)n5)ccc34)cnc2cc1-c1cnn(C(C)C)c1 [Example 45] , what is it?
1 to 5 nM

And then Cc1cc(-c2ccc3c(-c4cnc5cc(-c6ccc(CN7CCC7)cc6)c(C)nn45)ccnc3n2)n[nH]1 [Example 48] , what is it?
< 1 nM

And then Cc1nn2c(-c3ccnc4nc(-c5cnccn5)ccc34)cnc2cc1-c1cnn(C(C)C)c1 [Example 43] , what is it?
1 to 5 nM

And then Cc1nn2c(-c3ccnc4nc(-c5cnccn5)ccc34)cnc2cc1-c1cnn([C@H]2CC[C@H](O)CC2)c1 [Example 41] , what is it?
1 to 5 nM

And then CCn1cnc(-c2ccc3c(-c4cnc5cc(-c6ccc(CN7CCCC7)cc6)c(C)nn45)ccnc3n2)c1 [Example 52] , what is it?
< 1 nM

* * *

# testSystem: ALK2 (aa 147-end) (Homo sapiens (Human), UniProt Q04771)
# protocolSummary: ALK2 HTRF Assay
# Assay type: biochemical
# reportedConditions: 3 μM ATP, 0.5 nM ALK2, 2 hr, 25° C.; read-out: ALK2 IC50
Items are presented alongside their recorded IC50.

Below are worked cases with known answers.
Cc1nn2c(-c3ccnc4nc(-c5ccn(C)n5)ccc34)cnc2cc1-c1ccc(CN2CCC2)cc1 [Example 46]: 5 to 100 nM
CCn1cnc(-c2ccc3c(-c4cnc5cc(-c6ccc(CN7CCC7)cc6)c(C)nn45)ccnc3n2)c1 [Example 56]: 1 to 5 nM
COC(=O)c1nn2c(-c3ccnc4ccccc34)cnc2cc1-c1ccc(N2CCNCC2)cc1 [Example 2]: < 1 nM

Request the reported IC50 associated with Cc1nn2c(-c3ccnc4cc(C(O)c5cc(F)cc(F)c5)ccc34)cnc2cc1-c1ccc(N2CCNCC2)cc1 (stereo not shown) [Example 25]
1 to 5 nM

And then Cc1cnn(-c2ccc3c(-c4cnc5cc(-c6ccc(CN7CCCC7)cc6)c(C)nn45)ccnc3n2)n1 [Example 60] , what is it?
1 to 5 nM

And then Cc1cc(-c2ccc3c(-c4cnc5cc(-c6ccc(CN7CCOCC7)cc6)c(C)nn45)ccnc3n2)n[nH]1 [Example 49] , what is it?
< 1 nM

And then Cc1cnn(-c2ccc3c(-c4cnc5cc(-c6ccc(CN(C)C)cc6)c(C)nn45)ccnc3n2)n1 [Example 63] , what is it?
1 to 5 nM

* * *

# testSystem: ALK2 (aa 147-end) (Homo sapiens (Human), UniProt Q04771)
# protocolSummary: ALK2 HTRF Assay
# Format: biochemical
pIC50: −log10 of the molar value.
experimentalEndpoint: pIC50

Below are worked cases with known answers.
COCc1nn2c(-c3ccnc4ccccc34)cnc2cc1-c1ccc(N2CCNCC2)cc1: 8.30 to 9.00
Cc1nn2c(-c3ccnc4cc(C#N)ccc34)cnc2cc1-c1ccc(N2CCNCC2)cc1: 7.00 to 8.30
Cc1nn2c(-c3ccnc4nc(-c5cnn(C)c5)ccc34)cnc2cc1-c1cnn(C(C)C)c1: 8.30 to 9.00

Pending compound:
Request the reported pIC50 associated with Cc1nn2c(-c3ccnc4cc(N5CCOCC5)ccc34)cnc2cc1-c1ccc(N2CCNCC2)cc1
8.30 to 9.00

* * *

# testSystem: ALK2 (aa 147-end) (Homo sapiens (Human), UniProt Q04771)
# protocolSummary: ALK2 HTRF Assay
# Format: biochemical
# reportedConditions: 3 μM ATP, 0.5 nM ALK2, 2 hr, 25° C.; read-out: ALK2 IC50
pIC50: −log10 of the molar value.
experimentalEndpoint: pIC50

Cc1nn2c(-c3ccnc4cc(-c5ccncc5)ccc34)cnc2cc1-c1ccc(N2CCN(C)CC2=O)cc1 [Example 12]: 7.00 to 8.30
Cc1nn2c(-c3ccnc4cc(C(=O)N5CCN(C)CC5)ccc34)cnc2cc1-c1ccc(N2CCNCC2)cc1 [Example 17]: < 7.00

Request the reported pIC50 associated with Cc1nn2c(-c3ccnc4nc(-c5ccccn5)ccc34)cnc2cc1-c1ccc(CN2CCC2)cc1 [Example 38]
> 9.00

And then Cc1cc(-c2ccc3c(-c4cnc5cc(-c6cnn(C(C)C)c6)c(C)nn45)ccnc3n2)n[nH]1 [Example 50] , what is it?
> 9.00

And then Cc1nn2c(-c3ccnc4c3OCCO4)cnc2cc1-c1ccc(N2CCNCC2)cc1 [Example 29] , what is it?
> 9.00

And then CC(=O)N1CCN(c2ccc3c(-c4cnc5cc(-c6ccc(N7CCNCC7)cc6)c(C)nn45)ccnc3c2)CC1 [Example 23] , what is it?
7.00 to 8.30

And then CCOC(=O)N1CCN(C(=O)c2nn3c(-c4ccnc5ccccc45)cnc3cc2-c2ccc(N3CCNCC3)cc2)CC1 [Example 4] , what is it?
7.00 to 8.30

* * *

# testSystem: ALK2 (aa 147-end) (Homo sapiens (Human), UniProt Q04771)
# protocolSummary: ALK2 HTRF Assay
# Type: biochemical
# reportedConditions: 3 μM ATP, 0.5 nM ALK2, 2 hr, 25° C.; read-out: ALK2 IC50
pIC50: −log10 of the molar value.
experimentalEndpoint: pIC50

CCn1cnc(-c2ccc3c(-c4cnc5cc(-c6ccc(CN7CC(F)(F)C7)cc6)c(C)nn45)ccnc3n2)c1: 8.30 to 9.00

Pending compound:
Request the reported pIC50 associated with Cc1nn2c(-c3ccnc4cc(N5CC6(CCOC6)C5)ccc34)cnc2cc1-c1ccc(N2CCNCC2)cc1
7.00 to 8.30

* * *

# testSystem: ALK2 (aa 147-end) (Homo sapiens (Human), UniProt Q04771)
# protocolSummary: ALK2 HTRF Assay
# Format: biochemical
# reportedConditions: 3 μM ATP, 0.5 nM ALK2, 2 hr, 25° C.; read-out: ALK2 IC50
Items are presented alongside their recorded IC50.

Cc1nn2c(-c3ccnc4cc(-c5ccn(C)n5)ccc34)cnc2cc1-c1ccc(N2CCNCC2)cc1: 1 to 5 nM
CCn1cnc(-c2ccc3c(-c4cnc5cc(-c6ccc(CN7CCC(C)(O)CC7)cc6)c(C)nn45)ccnc3n2)c1: < 1 nM
Cc1cn2c(-c3ccnc4ccccc34)cnc2cc1-c1cnn(C2CCNCC2)c1: 1 to 5 nM
CCn1cnc(-c2ccc3c(-c4cnc5cc(-c6ccc(CN7CCO[C@H](CO)C7)cc6)c(C)nn45)ccnc3n2)c1: 1 to 5 nM
Cc1nn2c(-c3ccnc4nc(-c5ncccn5)ccc34)cnc2cc1-c1cnn(C(C)C)c1: < 1 nM
Cc1cnn(-c2ccc3c(-c4cnc5cc(-c6ccc(CN7CCN(C)CC7)cc6)c(C)nn45)ccnc3n2)n1: 1 to 5 nM
CCn1cnc(-c2ccc3c(-c4cnc5cc(-c6cnn(C(C)C)c6)c(C)nn45)ccnc3n2)c1: 1 to 5 nM

Pending molecule:
Request body: readout IC50, system ALK2 (aa 147-end) (Homo sapiens (Human), UniProt Q04771), query Cc1nn2c(-c3ccnc4cc(CO)ccc34)cnc2cc1-c1ccc(N2CCNCC2)cc1 . Return the value.
5 to 100 nM
